- ASSAY_SYSTEM: Tumor susceptibility gene 101 protein (Homo sapiens)
- EXPERIMENTAL_PROTOCOL: qHTS Assay for Iinhibitors of HIV-1 Budding by Blocking the Interaction of PTAP/TSG101: Hit Validation (AID 651600); further: nearly all actives have a fitted effect of over 70% in size
- CONDITION_DETAILS: PTAP peptide/TSG101 UEV interaction, biochemical assay; series mostly up to 57.5 µM
- Source text: Stages of the HIV-1 replication cycle, specifically virus assembly and release, provide underexploited targets for the development of novel antiviral inhibitors. The late stages of HIV-1 replication are mediated by the Gag precursor protein, Pr55Gag. […] A fluorescence anisotropy assay has been developed to quantitatively measure the PTAP-Tsg101 interaction which can be used to screen for inhibitors of this interaction. […]
Inconclusive results are not listed. Active and inactive are the calls of the source. The call rests on the fitted dose curve; in most records, active means well fitted inhibition curve with a large enough effect; inconclusive means small, poorly fitted or top-dose-only effect; inactive means no such curve, though single readings can be large or run the other way.
Hi there, use one of these labels in your reply, thanks! active, inactive

Observe how each entry below is paired with its result.
O=C(OCCN1C(=O)c2cccc3c(N4CCOCC4)ccc(c23)C1=O)c1ccc(Cl)cc1Cl | active
Cn1c(=O)c(N)c2c3c(c(Br)ccc31)C(=O)c1ccccc1-2 | active
CC(=O)N1CCc2nc3sc(C(=O)c4ccc(F)cc4)c(N)c3c(C(F)(F)F)c2C1 | inactive

Request: Please indicate how the test categorized Nc1ccc2nc3c(=O)n(CCc4ccccc4)c(=O)[nH]c3nc2c1 .
Response: active

Request: Please indicate how the test categorized CCCCN(C)C1=CC2=CC(=C(C#N)C#N)CCC2CC1 (stereo unspecified) .
Response: inactive

Request: Please indicate how the test categorized CCC1(c2ccccc2)NC(=O)N(CC(=O)Nc2ccc(OC)nc2)C1=O (stereo unspecified) .
Response: active

Request: Please indicate how the test categorized COc1cc(OC)c(-c2cc(C(=O)O)ccc2OC)c(OC)c1 .
Response: inactive

Request: Please indicate how the test categorized O=[N+]([O-])c1ccc(Sc2cccc[n+]2[O-])c2nonc12 .
Response: active
